Target: Sphingomyelinase C (Bacillus cereus)
Sequence (P11889 whole entry): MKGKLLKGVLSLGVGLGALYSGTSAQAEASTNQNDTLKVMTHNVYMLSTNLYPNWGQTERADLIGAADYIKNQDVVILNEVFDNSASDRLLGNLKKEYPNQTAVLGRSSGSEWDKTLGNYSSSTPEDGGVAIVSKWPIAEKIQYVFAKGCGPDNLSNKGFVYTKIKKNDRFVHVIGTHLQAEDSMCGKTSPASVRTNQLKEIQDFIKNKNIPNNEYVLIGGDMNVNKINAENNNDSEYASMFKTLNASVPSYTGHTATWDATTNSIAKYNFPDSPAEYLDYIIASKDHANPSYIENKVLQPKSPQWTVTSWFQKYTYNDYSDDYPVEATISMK
Reported IC50 values are given for each entry in this list.
quantity-measured: IC50

> print(dat)
                                   molecule  quantity.measured   result
1  CCCCCCCCCCCCCCCCOC[C@H](COCc1cccc(-c2ccccn2)n1)OCCCCCCCCCCCCCCCC [TOM-2-37]               IC50  > 20 µM
2  CCCCCCCCCCCCC/C=C/[C@@H](O)[C@H](COCc1cccc(-c2ccccn2)c1)NC(=O)CCCCC [SMY-632]               IC50  > 20 µM
3  CCCCCCCCCCCCC/C=C/[C@@H](O)[C@@H](N)COCc1cccc(-c2ccccn2)n1 [SMY-471]               IC50   0.9 µM
4  CCCCCCOC[C@H](COCc1cccc(-c2ccccn2)n1)OCCCCCC [TOM-2-18]               IC50  > 20 µM
5  CCCCCC(=O)OC[C@H](COCc1cccc(-c2ccccn2)n1)OC(=O)CCCCC [TOM-2-7]               IC50  > 20 µM

====

Target: UniProt P11889
Sequence (P11889 whole entry): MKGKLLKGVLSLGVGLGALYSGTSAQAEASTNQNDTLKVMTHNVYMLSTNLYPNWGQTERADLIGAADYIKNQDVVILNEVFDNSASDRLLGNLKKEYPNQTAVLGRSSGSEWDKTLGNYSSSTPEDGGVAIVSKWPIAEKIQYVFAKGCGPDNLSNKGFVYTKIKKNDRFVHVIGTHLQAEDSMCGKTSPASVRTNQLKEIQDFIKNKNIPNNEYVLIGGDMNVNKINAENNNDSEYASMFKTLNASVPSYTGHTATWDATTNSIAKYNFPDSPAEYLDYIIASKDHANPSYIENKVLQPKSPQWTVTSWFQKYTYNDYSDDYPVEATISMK
quantity-measured: IC50

> print(dat)
                                   compound  quantity.measured   result
1  CCCCCC(=O)N[C@@H](COCc1cccc(-c2ccccn2)n1)[C@H](O)/C=C/COc1ccc(C(=O)c2ccccc2)cc1 [SMY-469a]               IC50  > 20 µM
2  CCCCCCCCCCCCC/C=C/[C@@H](Oc1cccc(-c2ccccn2)n1)[C@H](COCc1cccc(-c2ccccn2)n1)NC(=O)CCCCC               IC50   3.3 µM
3  CCCCCC(=O)N[C@@H](COCc1cccc(-c2ccccn2)n1)[C@H](O)c1ccccc1               IC50   0.8 µM
4  CCCCCCCCCCCCCCC[C@@H](O)[C@H](COCc1cccc(-c2ccccn2)n1)NC(=O)CCCCC               IC50  > 20 µM
5  CCCCCCCCCCCCC/C=C/[C@@H](O)[C@H](COCc1cccc(-c2ccccn2)n1)NC(=O)CCCCC [RY221B-a]               IC50   1.2 µM
6  CCCCCCCCCCCCC/C=C/[C@@H](O)[C@H](COCc1cccc(-c2ccccn2)n1)NC(=O)OC(C)(C)C               IC50  18.3 µM
7  CCCCCCCCCCCCC/C=C/[C@@H](Oc1cccc(-c2ccccn2)n1)[C@H](CO)NC(=O)CCCCC [RY221B-b]               IC50  > 20 µM

Reference source: BindingDB's records for doi:10.3109/14756366.2013.777717
